# credit: patent US20250032569A1

A collection of molecules and their measured UVA/UVB
Test: UVA/UVB ratio from absorption spectra (Eq. 3) and Boots UVA Star Rating
Format: physicochemical
Settings: chemical UV filter 2.5% in sun protective solution
Protocol: Critical Wavelength (λC) and the UVA/UVB ratios were also calculated from the absorption spectra and were collected in Table 2. […] In order to further characterize solutions as skin photo-protectors from UVA, the UVA/UVB ratio was calculated using Eq. 3: […] In order to characterize the ability of creams to protect skin against UVA the UVA/UVB ratio was calculated using Eq. 3: […]
Write the value as a bare number.

• CCCCCCCCCCCCc1cc(C)cc(-n2nc3ccccc3n2)c1O [benzotriazolyl dodecyl p-cresol, Benzotriazolyl dodecyl p-cresol] = 0.62

# input Please give the measured UVA/UVB for this molecule: CCCCC(CC)COc1ccc(-c2nc(-c3ccc(OC)cc3)nc(-c3ccc(OCC(CC)CCCC)cc3O)n2)c(O)c1 (stereo not shown)
# output 0.50

# input Now the molecule CCCCC(CC)COC(=O)c1ccc(Nc2nc(Nc3ccc(C(=O)OCC(CC)CCCC)cc3)nc(Nc3ccc(C(=O)OCC(CC)CCCC)cc3)n2)cc1 (stereo not shown) [ethylhexyl triazone, Ethylhexyl triazone]
# output 0.21

# input Now the molecule CCCCC(CC)COC(=O)C(C#N)=C(c1ccccc1)c1ccccc1 (stereo not shown) [octocrylene, Octocrylene]
# output 0.22

---

experiment: Critical wavelength (λC) from absorption spectra (Eq. 2); type: physicochemical; conditions: chemical UV filter 2.5% in sun protective solution
A collection of compounds and their measured Critical wavelength (λC)
Reply with just the number (in nm).

Consider the reported Critical wavelength (λC) for these compounds:
* CCCCCCCCCCCCc1cc(C)cc(-n2nc3ccccc3n2)c1O [benzotriazolyl dodecyl p-cresol, Benzotriazolyl dodecyl p-cresol] | 363
* CCCCC(CC)COc1ccc(-c2nc(-c3ccc(OC)cc3)nc(-c3ccc(OCC(CC)CCCC)cc3O)n2)c(O)c1 (centres unmarked) | 365
* CCCCC(CC)COC(=O)c1ccc(Nc2nc(Nc3ccc(C(=O)OCC(CC)CCCC)cc3)nc(Nc3ccc(C(=O)OCC(CC)CCCC)cc3)n2)cc1 (centres unmarked) [ethylhexyl triazone, Ethylhexyl triazone] | 341

# input Please give the measured Critical wavelength (λC) for this compound: CCCCC(CC)COC(=O)C(C#N)=C(c1ccccc1)c1ccccc1 (centres unmarked) [octocrylene, Octocrylene]
# output 342

# input Now the compound CCCCC(CC)COC(=O)c1ccc(Nc2nc(Nc3ccc(C(=O)NC(C)(C)C)cc3)nc(Nc3ccc(C(=O)OCC(CC)CCCC)cc3)n2)cc1 (centres unmarked) [diethylhexyl butamido triazone, Diethylhexyl butamido triazone]
# output 337
